- ASSAY_TARGET: T1, B-cat-Halo (UniProt P35222 1-781)
- T1 sequence (looked up): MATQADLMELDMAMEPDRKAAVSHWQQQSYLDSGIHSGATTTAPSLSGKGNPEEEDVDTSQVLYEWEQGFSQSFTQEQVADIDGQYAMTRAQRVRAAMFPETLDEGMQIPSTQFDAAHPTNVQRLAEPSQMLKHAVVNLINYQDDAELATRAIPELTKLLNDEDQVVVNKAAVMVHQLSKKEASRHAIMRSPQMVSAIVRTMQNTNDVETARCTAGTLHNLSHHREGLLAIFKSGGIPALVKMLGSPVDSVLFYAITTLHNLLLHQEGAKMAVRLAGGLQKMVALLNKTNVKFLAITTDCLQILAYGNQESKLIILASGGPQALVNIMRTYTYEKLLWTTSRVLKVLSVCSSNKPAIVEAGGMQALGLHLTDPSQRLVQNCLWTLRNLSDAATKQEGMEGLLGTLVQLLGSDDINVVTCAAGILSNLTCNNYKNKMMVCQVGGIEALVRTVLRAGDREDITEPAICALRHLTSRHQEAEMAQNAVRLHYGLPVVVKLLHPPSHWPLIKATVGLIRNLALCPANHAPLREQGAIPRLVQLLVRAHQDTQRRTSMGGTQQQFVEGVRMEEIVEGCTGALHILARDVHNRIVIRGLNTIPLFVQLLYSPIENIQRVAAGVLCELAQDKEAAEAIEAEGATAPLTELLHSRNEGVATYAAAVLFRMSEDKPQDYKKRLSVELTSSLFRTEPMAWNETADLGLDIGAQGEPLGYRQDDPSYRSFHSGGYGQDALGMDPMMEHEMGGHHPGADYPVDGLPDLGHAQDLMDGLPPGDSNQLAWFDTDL
- MEASUREMENT_DESCRIPTION: cell-based or functional assay
Starred links: 1 amine or outer side, 2 acyl side, 3 side chain; linkers in the order of their positions; H or OH if unused. Positions of bridges follow the written chain, without caps; N, C: chain ends. Non-standard residues stand in square brackets, D forms with d. Primed or numbered codes have the meaning given here. *: point of attachment. B5(10) = 2-amino-2-(pent-4-en-1-yl)hept-6-enoic acid, bis(4-pentenyl)glycine, stitching residue bearing both staples, C=CCCCC(CCCC=C)(N[*:1])C(=O)[*:2]; PyrS2″ = (S)-3-amino-1-((pent-4-en-1-yloxy)carbonyl)pyrrolidine-3-carboxylic acid (stapling residue), C=CCCCOC(=O)N1CC[C@@](N[*:1])(C(=O)[*:2])C1; B5(5) = 2,2-bis(4-pentenyl)glycine, 2-amino-2-(pent-4-en-1-yl)hept-6-enoic acid (stitching residue), C=CCCCC(CCCC=C)(N[*:1])C(=O)[*:2]; B5(33) = 2-amino-2-(pent-4-en-1-yl)hept-6-enoic acid (bis-pentenylglycine, two olefin side chains), C=CCCCC(CCCC=C)(N[*:1])C(=O)[*:2]; PyrS2 = (S)-3-amino-1-((pent-4-en-1-yloxy)carbonyl)pyrrolidine-3-carboxylic acid, C=CCCCOC(=O)N1CC[C@@](N[*:1])(C(=O)[*:2])C1; Phe(2-Cl) = N[C@@H](Cc1ccccc1Cl)C(=O)O; Bta = N[C@@H](Cc1csc2ccccc12)C(=O)O; Lys(iPr) = CC(C)NCCCC[C@H](N)C(=O)O; αAllylPro = C=CC[C@@]1(C(=O)O)CCCN1; tBuAla = CC(C)(C)C[C@H](N)C(=O)O; Ms = CS(=O)(=O)*
METRIC_NAME: NanoBRET Abs IC50

1. Ac-[αAllylPro]D[tBuAla][B5(10)]DDAAF[Lys(iPr)][PyrS2][Phe(2-Cl)][Bta]L-NH2 (staple 1-4, 4-11) [I-1280] : 24.7 µM
2. Ac-[αAllylPro]D[tBuAla][B5(5)]DD[Lys(iPr)]AFT[PyrS2″][Phe(2-Cl)][Bta]L-NH2 (staple 1-4; staple 4-11 (inferred); not fully specified; printed as Ac-PL3-Asp-Npg-B5-Asp-Asp-iPrLys-Ala-Phe-Thr-PyrS2-2C1F-BztA-Leu-NH2) [I-1274] : > 20 µM

Fill blank: measured NanoBRET Abs IC50 of the binder Ms-[αAllylPro]D[tBuAla][B5(33)]DDAAFN[PyrS2][Phe(2-Cl)][Bta][dT]-NH2 (staple 1-4, 4-11 (inferred); not fully specified; printed as MeSO2-PL3-Asp-Npg-B5-Asp-Asp-Ala-Ala-Phe-Asn-PyrS2-2C1F-BztA-dThr-NH2) [I-1258] is ____.
> 20 µM

Fill blank: measured NanoBRET Abs IC50 of the binder Ac-[αAllylPro]D[tBuAla][B5(5)]DD[Lys(iPr)]AFL[PyrS2][Phe(2-Cl)][Bta]L-NH2 (staple 1-4, 4-11; not fully specified; printed as Ac-PL3-Asp-Npg-B5-Asp-Asp-iPrLys-Ala-Phe-Leu-PyrS2-2C1F-BztA-Leu-NH2) [I-1277] is ____.
> 20 µM

Fill blank: measured NanoBRET Abs IC50 of the binder Ac-[αAllylPro]D[tBuAla][B5(5)]DDAAF[Lys(iPr)][PyrS2][Phe(2-Cl)][Bta]Q-NH2 (staple 1-4, 4-11; not fully specified; printed as Ac-PL3-Asp-Npg-B5-Asp-Asp-Ala-Ala-Phe-iPrLys-PyrS2-2C1F-BztA-Gln-NH2) [I-1278] is ____.
18 µM

Fill blank: measured NanoBRET Abs IC50 of the binder Ac-[αAllylPro]D[tBuAla][B5(5)]DD[Lys(iPr)]AFT[PyrS2″][Phe(2-Cl)][Bta]T-NH2 (staple 1-4; staple 4-11 (inferred); not fully specified; printed as Ac-PL3-Asp-Npg-B5-Asp-Asp-iPrLys-Ala-Phe-Thr-PyrS2-2C1F-BztA-Thr-NH2) [I-1273] is ____.
> 20 µM
